Recorded MIC50 values (C. krusei ATCC 6258) are given below.

- Compound: "COc1cc(/C=C/C(=O)c2ccc(OCC(O)(Cn3cncn3)c3ccc(F)cc3F)cc2)cc(OC)c1OC (centres unmarked) [Compound 1A-5]"
  Target Or System: "C. krusei ATCC 6258"
  MIC50: "> 4 µg/mL"
- Compound: "COc1ccc(/C=C/C(=O)c2ccc(OCC(O)(Cn3cncn3)c3ccc(Br)cc3)cc2)cc1 (centres unmarked) [Compound 1A-11]"
  Target Or System: "C. krusei ATCC 6258"
  MIC50: "> 4 µg/mL"
- Compound: "COc1cc(/C=C/C(=O)c2ccc(OCC(O)(Cn3cncn3)c3ccc(F)cc3F)cc2)cc(OC)c1 (centres unmarked) [Compound 1A-4]"
  Target Or System: "C. krusei ATCC 6258"
  MIC50: "> 4 µg/mL"
- Compound: "COc1ccccc1/C=C/C(=O)c1ccc(OCC(O)(Cn2cncn2)c2ccc(F)cc2F)cc1 (centres unmarked) [Compound 1A-3]"
  Target Or System: "C. krusei ATCC 6258"
  MIC50: "> 8 µg/mL"
- Compound: "Cn1cc(/C=C/C(=O)c2ccc(OCC(O)(Cn3cncn3)c3ccc(F)cc3F)cc2)c2ccccc21 (centres unmarked) [Compound 1A-16]"
  Target Or System: "C. krusei ATCC 6258"
  MIC50: "> 4 µg/mL"

Query block: Reported MIC50 for O=C(/C=C/c1cccs1)c1ccc(OC[C@@](O)(Cn2cncn2)c2ccc(F)cc2F)cc1 [S-(+)-1A-13] : what is it?
Result block: > 4 µg/mL

Query block: Ok, now COC(COc1ccc(C(=O)/C=C/c2ccc(Cl)cc2Cl)cc1)(Cn1cncn1)c1ccc(F)cc1F (centres unmarked) [Compound 1A-19]
Result block: > 4 µg/mL
